Reference source: the M2OR odorant receptor database

Test system: OR6C4
Sequence (as listed by the source): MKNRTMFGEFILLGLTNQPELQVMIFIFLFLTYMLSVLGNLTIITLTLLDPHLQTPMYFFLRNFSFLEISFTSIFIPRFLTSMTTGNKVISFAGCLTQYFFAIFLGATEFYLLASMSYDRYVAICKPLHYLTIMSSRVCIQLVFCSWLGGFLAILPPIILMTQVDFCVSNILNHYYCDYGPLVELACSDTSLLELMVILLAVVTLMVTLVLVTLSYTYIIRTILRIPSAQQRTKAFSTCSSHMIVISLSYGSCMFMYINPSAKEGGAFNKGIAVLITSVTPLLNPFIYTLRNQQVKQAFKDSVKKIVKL
CONDITION NOTES: stereoisomer not certain
PARAMETER: odorant receptor agonist call

- CC1=C(O)C(=O)C(C)O1 (centres undefined): inactive
- CCCC(S)CCOC(C)=O (centres undefined): inactive
- CC1=C(O)C(=O)OC1C (centres undefined): inactive
- CCC1OC(=O)C(O)=C1C (centres undefined): inactive

* * *

TARGET OR SYSTEM: OR14J1 (Homo sapiens) (UniProt Q9UGF5)
Sequence (Q9UGF5 whole entry): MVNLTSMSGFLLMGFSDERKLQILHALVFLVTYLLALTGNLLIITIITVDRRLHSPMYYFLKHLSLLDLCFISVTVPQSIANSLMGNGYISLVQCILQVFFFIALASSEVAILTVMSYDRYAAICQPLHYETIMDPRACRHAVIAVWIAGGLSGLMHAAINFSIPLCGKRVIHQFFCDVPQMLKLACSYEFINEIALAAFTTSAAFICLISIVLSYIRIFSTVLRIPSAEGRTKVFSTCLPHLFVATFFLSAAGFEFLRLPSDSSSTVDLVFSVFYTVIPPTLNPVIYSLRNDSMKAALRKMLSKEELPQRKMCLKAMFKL
CONDITION NOTES: stereoisomer not certain
Pick from active, inactive when you respond.

# outcome recorded in this test, key = CC(CO)CS (stereo not given)
active

Which outcome was assigned to CC1CCCCCCCCCCCCC(=O)C1 (stereo not given) in this test?
inactive

Tell me the recorded outcome of this test for Cc1cnc(C)c(C)n1 .
inactive

// return assay outcome for CCCCCCC=CCCC=O
inactive

Tell me the recorded outcome of this test for CCCCC(S)C(C)CO (stereo not given) .
inactive

Returns: the outcome recorded for CCC1OC(=O)C(O)=C1C (stereo not given) in this assay.
inactive

Could you please tell me the result logged for CC1=NC(C)C(C)S1 (stereo not given) in this assay?
inactive

Called result for CCCCCC(S)C(C)CO (stereo not given)
inactive

What did the test return for CCC1OC(C)=C(O)C1=O (stereo not given) ?
inactive

Please share the test call associated with CC(=O)c1c(C)c([N+](=O)[O-])c(C(C)(C)C)c([N+](=O)[O-])c1C .
inactive

* * *

TARGET OR SYSTEM: OR10J5 (Homo sapiens)
Sequence (whole entry): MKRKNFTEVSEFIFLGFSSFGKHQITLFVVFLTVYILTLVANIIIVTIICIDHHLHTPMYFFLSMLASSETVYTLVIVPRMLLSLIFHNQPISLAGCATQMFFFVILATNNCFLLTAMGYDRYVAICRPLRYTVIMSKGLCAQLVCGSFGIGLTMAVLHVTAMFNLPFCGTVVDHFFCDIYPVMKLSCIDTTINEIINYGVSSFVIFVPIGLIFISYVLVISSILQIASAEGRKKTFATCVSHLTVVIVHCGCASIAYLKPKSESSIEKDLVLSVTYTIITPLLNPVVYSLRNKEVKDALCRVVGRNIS
CONDITION NOTES: stereoisomer not certain
Entry note: the call must match one of active, inactive

Dear colleague, could you share the recorded outcome for CCCCCCC=CCCC=O when you have a moment?
inactive

How was CCCCCO classified in this test?
inactive

* * *

TARGET OR SYSTEM: OR8B4 (Homo sapiens) (UniProt Q96RC9)
Sequence (whole entry): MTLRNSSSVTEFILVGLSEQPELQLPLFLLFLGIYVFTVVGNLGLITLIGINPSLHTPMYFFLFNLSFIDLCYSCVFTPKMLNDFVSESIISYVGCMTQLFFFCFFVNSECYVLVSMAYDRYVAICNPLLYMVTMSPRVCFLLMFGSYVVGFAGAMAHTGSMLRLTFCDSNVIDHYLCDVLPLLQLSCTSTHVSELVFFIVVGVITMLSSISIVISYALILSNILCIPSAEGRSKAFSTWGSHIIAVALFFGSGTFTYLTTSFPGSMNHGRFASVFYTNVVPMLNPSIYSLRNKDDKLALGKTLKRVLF
CONDITION NOTES: stereoisomer not certain
PARAMETER: odorant receptor agonist call

• CC1=C(O)C(=O)OC1C (stereo not drawn) = inactive
• CC1=C(O)C(=O)C(C)O1 (stereo not drawn) = inactive
• CC(=O)c1c(C)c([N+](=O)[O-])c(C(C)(C)C)c([N+](=O)[O-])c1C = inactive
